Give measured protein stability index for each item. Keep answers brief.
B1: SFRS1 (parent)
chain: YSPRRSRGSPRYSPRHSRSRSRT

# Variants of: B1
# Procedure Summary: protein stability index of a GFP-peptide fusion (GPS, HEK-293T) (PSI 1-6); higher = more stable;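 also: lentivirally expressed fusions sorted by FACS into six bins by GFP to DsRed ratio, PSI derived from sequencing read proportions per bin multiplied by bin number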
# Condition Parameters: c terminus: native
Give bare numbers.

Here's what some known entries look like.
[[record]]
mutation_notation = "R20L"
recorded_measurement = 4.08

[[record]]
mutation_notation = "Y1M"
recorded_measurement = 3.9

[[record]]
mutation_notation = "P14E"
recorded_measurement = 4.04

[[record]]
mutation_notation = "S17C"
recorded_measurement = 4

[[record]]
mutation_notation = "G8K"
recorded_measurement = 3.98


For every record below, what is its protein stability index?
1. S19Q
2. P10A
3. S9A
4. S19H

stdout:
[3.89, 4, 3.94, 3.89]
